# TEST DESCRIPTION: Plasma and lymphatic concentrations of EC-18 in beagle dogs after single administration
# Type: in vivo, dog
# ASSAY CONDITIONS: male, beagle, dog; 4000 mg/kg po; Lymph
QUANTITY NAME: Cmax (ng/mL)
Response body: numeric value in ng/mL, unit text excluded.

QUERY: Fill blank: measured Cmax of the compound CCCCC/C=C\C/C=C\CCCCCCCC(=O)OC(COC(C)=O)COC(=O)CCCCCCCCCCCCCCC (stereo not shown) is ____.
RESULT: 46600

----------
# TEST DESCRIPTION: Plasma concentrations of EC-18 in non-irradiated and irradiated mice
# Assay type: in vivo
# ASSAY CONDITIONS: male, Balb/c, mouse, po, 250 mg/kg, day 7, 250 mg/kg oral daily, Irradiated 6.11 Gy
QUANTITY NAME: Tmax (min)
Response body: numeric value in min, unit text excluded.

QUERY: Fill blank: measured Tmax of the compound CCCCC/C=C\C/C=C\CCCCCCCC(=O)OC(COC(C)=O)COC(=O)CCCCCCCCCCCCCCC (stereo not shown) is ____.
RESULT: 36

----------
# TEST DESCRIPTION: Fertility and early embryonic developmental toxicity study
# Assay type: in vivo, rat
# ASSAY CONDITIONS: both sexes, SD, rat, in vivo; both males and females
QUANTITY NAME: NOAEL (mg/kg/day)
Response body: numeric value in mg/kg/day, unit text excluded.

QUERY: Fill blank: measured NOAEL of the compound CCCCC/C=C\C/C=C\CCCCCCCC(=O)OC(COC(C)=O)COC(=O)CCCCCCCCCCCCCCC (stereo not shown) is ____.
RESULT: 2000

----------
# TEST DESCRIPTION: Plasma and lymphatic concentrations of EC-18 in rats after single oral administration
# Assay type: in vivo, rat
# ASSAY CONDITIONS: male, SD, rat; Plasma; 2000 mg/kg oral; n=3
QUANTITY NAME: Tmax (h)
Response body: numeric value in h, unit text excluded.

QUERY: Fill blank: measured Tmax of the compound CCCCC/C=C\C/C=C\CCCCCCCC(=O)OC(COC(C)=O)COC(=O)CCCCCCCCCCCCCCC (stereo not shown) is ____.
RESULT: 1.67

----------
# TEST DESCRIPTION: Plasma concentrations of EC-18 in non-irradiated and irradiated mice
# Type: in vivo
# ASSAY CONDITIONS: male, Balb/c, mouse, po, 50 mg/kg, day 14, 50 mg/kg oral daily, Non-irradiated
# Method: A day after 6.11 Gy gamma-radiation, both irradiated and non-irradiated male Balb/c mice (n=5) were orally administered daily with 50, 100, 250 or 500 mg/kg of EC-18 up to 14 days and analyzed for PK parameters on days 7 and 14 post-radiation (Table 21).
QUANTITY NAME: Tmax
Could you kindly put the unit after your number?

QUERY: Fill blank: measured Tmax of the molecule CCCCC/C=C\C/C=C\CCCCCCCC(=O)OC(COC(C)=O)COC(=O)CCCCCCCCCCCCCCC (stereo not shown) is ____.
RESULT: 7.8 h

----------
# TEST DESCRIPTION: Plasma and lymphatic concentrations of EC-18 in rats after single oral administration
# Type: in vivo, rat
# ASSAY CONDITIONS: male, SD, rat, plasma; 500-2000 mg/kg oral; read-out: mean absolute bioavailability (BA)
QUANTITY NAME: bioavailability

QUERY: Fill blank: measured bioavailability of the compound CCCCC/C=C\C/C=C\CCCCCCCC(=O)OC(COC(C)=O)COC(=O)CCCCCCCCCCCCCCC (stereo not shown) is ____.
RESULT: < 0.3%

----------
# TEST DESCRIPTION: Plasma and lymphatic concentrations of EC-18 in beagle dogs after single administration
# Type: in vivo, dog
# ASSAY CONDITIONS: male, beagle, dog, lymph, po, 2000 mg/kg, 2000 mg/kg po; Lymph; read-out: Tmax
QUANTITY NAME: Tmax (h)
Response body: numeric value in h, unit text excluded.

QUERY: Fill blank: measured Tmax of the compound CCCCC/C=C\C/C=C\CCCCCCCC(=O)OC(COC(C)=O)COC(=O)CCCCCCCCCCCCCCC (stereo not shown) is ____.
RESULT: 3.3

----------
# TEST DESCRIPTION: Plasma concentrations of EC-18 in non-irradiated and irradiated mice
# Format: in vivo
# ASSAY CONDITIONS: male, Balb/c, mouse, po, 250 mg/kg, day 14, 250 mg/kg oral daily, Irradiated 6.11 Gy
QUANTITY NAME: Tmax
Could you kindly put the unit after your number?

QUERY: Fill blank: measured Tmax of the molecule CCCCC/C=C\C/C=C\CCCCCCCC(=O)OC(COC(C)=O)COC(=O)CCCCCCCCCCCCCCC (stereo not shown) is ____.
RESULT: 36 min

----------
# TEST DESCRIPTION: Plasma and lymphatic concentrations of EC-18 in rats after single oral administration
# Assay type: in vivo, rat
# ASSAY CONDITIONS: male, SD, rat; Plasma; 500 mg/kg oral; n=3
QUANTITY NAME: Cmax (ng/mL)
Response body: numeric value in ng/mL, unit text excluded.

QUERY: Fill blank: measured Cmax of the molecule CCCCC/C=C\C/C=C\CCCCCCCC(=O)OC(COC(C)=O)COC(=O)CCCCCCCCCCCCCCC (stereo not shown) [EC-18, 1-palmitoyl-2-linoleoyl-3-acetylglycerol] is ____.
RESULT: 6.87

----------
# TARGET OR SYSTEM: P-gp (Homo sapiens, UniProt P08183)
# Sequence (P08183 whole entry): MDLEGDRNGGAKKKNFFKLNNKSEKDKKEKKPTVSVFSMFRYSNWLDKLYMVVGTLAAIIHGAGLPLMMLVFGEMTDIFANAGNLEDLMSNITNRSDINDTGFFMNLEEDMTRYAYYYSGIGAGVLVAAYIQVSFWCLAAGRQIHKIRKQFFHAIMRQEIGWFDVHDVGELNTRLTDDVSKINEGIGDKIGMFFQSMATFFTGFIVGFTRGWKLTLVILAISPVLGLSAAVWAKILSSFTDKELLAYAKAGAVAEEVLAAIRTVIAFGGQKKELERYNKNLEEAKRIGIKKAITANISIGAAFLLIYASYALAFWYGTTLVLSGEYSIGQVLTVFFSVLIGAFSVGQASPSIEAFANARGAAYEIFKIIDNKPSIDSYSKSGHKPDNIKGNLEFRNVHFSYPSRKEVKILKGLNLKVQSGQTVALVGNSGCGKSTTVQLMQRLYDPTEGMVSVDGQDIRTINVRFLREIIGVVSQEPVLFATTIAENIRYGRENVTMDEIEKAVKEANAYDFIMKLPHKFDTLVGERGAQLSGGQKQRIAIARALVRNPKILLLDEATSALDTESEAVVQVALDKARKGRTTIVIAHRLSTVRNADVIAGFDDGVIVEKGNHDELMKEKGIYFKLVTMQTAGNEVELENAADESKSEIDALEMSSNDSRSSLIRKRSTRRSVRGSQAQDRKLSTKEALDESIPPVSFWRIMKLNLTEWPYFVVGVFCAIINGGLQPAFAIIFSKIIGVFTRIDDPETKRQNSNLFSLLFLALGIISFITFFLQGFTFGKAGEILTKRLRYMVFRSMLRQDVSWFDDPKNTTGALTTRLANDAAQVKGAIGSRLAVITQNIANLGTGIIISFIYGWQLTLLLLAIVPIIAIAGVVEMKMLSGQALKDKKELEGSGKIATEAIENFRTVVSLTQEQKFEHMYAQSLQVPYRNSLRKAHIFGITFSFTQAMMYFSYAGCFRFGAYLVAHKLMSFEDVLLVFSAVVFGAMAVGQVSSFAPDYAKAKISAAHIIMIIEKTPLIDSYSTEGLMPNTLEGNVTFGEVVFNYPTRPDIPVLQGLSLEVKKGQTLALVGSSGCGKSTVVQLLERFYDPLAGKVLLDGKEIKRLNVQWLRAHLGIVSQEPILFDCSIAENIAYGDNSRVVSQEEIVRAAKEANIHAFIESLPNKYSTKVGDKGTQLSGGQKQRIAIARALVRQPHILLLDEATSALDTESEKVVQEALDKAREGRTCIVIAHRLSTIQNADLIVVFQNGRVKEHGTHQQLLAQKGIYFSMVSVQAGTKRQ
QUANTITY NAME: IC50

QUERY: Fill blank: measured IC50 of the molecule CCCCC/C=C\C/C=C\CCCCCCCC(=O)OC(COC(C)=O)COC(=O)CCCCCCCCCCCCCCC (stereo not shown) [EC-18, 1-palmitoyl-2-linoleoyl-3-acetylglycerol] is ____.
RESULT: > 32 µM

----------
# TEST DESCRIPTION: Plasma concentrations of EC-18 in non-irradiated and irradiated mice
# Format: in vivo
# ASSAY CONDITIONS: male, Balb/c, mouse, po, 250 mg/kg, day 7, 250 mg/kg oral daily, Irradiated 6.11 Gy
QUANTITY NAME: AUC(0-t) (ng·h/mL)
Response body: numeric value in ng·h/mL, unit text excluded.

QUERY: Fill blank: measured AUC(0-t) of the compound CCCCC/C=C\C/C=C\CCCCCCCC(=O)OC(COC(C)=O)COC(=O)CCCCCCCCCCCCCCC (stereo not shown) [EC-18, 1-palmitoyl-2-linoleoyl-3-acetylglycerol] is ____.
RESULT: 73.9

----------
# TEST DESCRIPTION: Plasma and lymphatic concentrations of EC-18 in beagle dogs after single administration
# Assay type: in vivo, dog
# ASSAY CONDITIONS: male, beagle, dog, plasma, po, 1000 mg/kg, 1000 mg/kg po; Plasma; read-out: Tmax
QUANTITY NAME: Tmax
Could you kindly put the unit after your number?

QUERY: Fill blank: measured Tmax of the compound CCCCC/C=C\C/C=C\CCCCCCCC(=O)OC(COC(C)=O)COC(=O)CCCCCCCCCCCCCCC (stereo not shown) is ____.
RESULT: 1.3 h

----------
# TEST DESCRIPTION: Plasma and lymphatic concentrations of EC-18 in beagle dogs after single administration
# Type: in vivo, dog
# ASSAY CONDITIONS: male, beagle, dog; 2000 mg/kg po; Plasma
# Description: A single dose of EC-18 (1000, 2000, 4000 mg/kg by mouth or 100 mg/kg IV) was administered to male beagle dogs in fed condition and the concentration of EC-18 in plasma and lymph was measured using UHPLC-MS/MS.
QUANTITY NAME: Cmax (ng/mL)
Response body: numeric value in ng/mL, unit text excluded.

QUERY: Fill blank: measured Cmax of the compound CCCCC/C=C\C/C=C\CCCCCCCC(=O)OC(COC(C)=O)COC(=O)CCCCCCCCCCCCCCC (stereo not shown) is ____.
RESULT: 2110

----------
# TARGET OR SYSTEM: CYP1A2 (Homo sapiens)
# Construct: incubated with human liver microsomes; from tissue; host or cells: human liver microsomes
# Sequence (P05177 whole entry): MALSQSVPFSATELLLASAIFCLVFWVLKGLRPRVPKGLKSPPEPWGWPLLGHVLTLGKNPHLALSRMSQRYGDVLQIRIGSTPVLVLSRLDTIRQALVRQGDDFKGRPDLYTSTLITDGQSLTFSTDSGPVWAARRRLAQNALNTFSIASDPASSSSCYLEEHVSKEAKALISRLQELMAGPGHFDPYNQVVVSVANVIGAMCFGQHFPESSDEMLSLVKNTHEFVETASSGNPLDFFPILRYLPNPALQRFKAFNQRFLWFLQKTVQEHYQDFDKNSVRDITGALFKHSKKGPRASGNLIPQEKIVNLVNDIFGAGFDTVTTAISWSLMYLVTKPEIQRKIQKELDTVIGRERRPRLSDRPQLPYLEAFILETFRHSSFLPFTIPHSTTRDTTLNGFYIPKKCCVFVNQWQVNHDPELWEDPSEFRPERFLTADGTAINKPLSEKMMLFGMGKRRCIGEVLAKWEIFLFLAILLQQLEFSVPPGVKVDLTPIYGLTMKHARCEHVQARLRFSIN
# TEST DESCRIPTION: biochemical
# Type: in vitro ADME
QUANTITY NAME: pIC50
Give only the number. pIC50 is defined as minus log10 of concentration in molar units.

QUERY: Fill blank: measured pIC50 of the compound CCOc1ccc2ccc(=O)oc2c1 [7-EC, 7-ethoxycoumarin, reference compound] is ____.
RESULT: 5.77

----------
QUANTITY NAME: pIC50
Give only the number. pIC50 is defined as minus log10 of concentration in molar units.

QUERY: Please tell me: pIC50 of CCCCC/C=C\C/C=C\CCCCCCCC(=O)OC(COC(C)=O)COC(=O)CCCCCCCCCCCCCCC (stereo not shown) [EC-18, 1-palmitoyl-2-linoleoyl-3-acetylglycerol] , system CYP2C9 (Homo sapiens)?
RESULT: 2.10

All figures here come from patent US12076307B2.
